- Assay summary: Flask-shaking 1-octanol/water partition, log D–pH profile fitted to Avdeef's diagram
- Format: physicochemical
- Run parameters: from log D–pH curve fitting; modified Britton–Robinson buffers pH 5–11.5; 298 K; read-out: acid dissociation constant, pKa
Assay endpoint: pKa
# answer = number (no unit)

Asked: If you can, please state the reported pKa value of COc1ccc(C(=O)c2ccccc2)c(O)c1 .
Given back: 7.97

====

- Assay summary: Flask-shaking 1-octanol/water partition, log D–pH profile fitted to Avdeef's diagram
- Type: physicochemical
- Run parameters: neutral form; modified Britton–Robinson buffers pH 5–11.5; 298 K; curve fitting; read-out: 1-octanol/water partition coefficient, log P
Assay endpoint: logP
# answer = number (no unit)

Asked: If you can, please state the reported logP value of COc1ccc(C(=O)c2ccccc2)c(O)c1 [OXB] .
Given back: 2.99
